Where do the numbers come from? From paper PMC4300089.

- testedOn: PKA-IIβ (Homo sapiens, UniProt P31323)
- Construct: made in house
- Sequence (P31323 whole entry): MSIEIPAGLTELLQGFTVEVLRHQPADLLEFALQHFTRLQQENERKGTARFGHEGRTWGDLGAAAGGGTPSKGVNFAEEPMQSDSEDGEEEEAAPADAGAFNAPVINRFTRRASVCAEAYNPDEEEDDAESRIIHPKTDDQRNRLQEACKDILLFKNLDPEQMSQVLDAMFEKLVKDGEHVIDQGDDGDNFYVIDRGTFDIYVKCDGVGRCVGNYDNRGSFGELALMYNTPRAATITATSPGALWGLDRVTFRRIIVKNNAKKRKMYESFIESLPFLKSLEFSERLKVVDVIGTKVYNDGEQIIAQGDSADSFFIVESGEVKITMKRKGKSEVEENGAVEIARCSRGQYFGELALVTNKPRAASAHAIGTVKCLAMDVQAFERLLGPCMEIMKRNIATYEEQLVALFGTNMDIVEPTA
- procedureText: PKA activity assay, PKA-IIβ
- Format: biochemical
- statedConditions: PKAIIβ; concentration 1.00E+01 μM
Give measured A (PKA activity) for each item. Keep answers brief.
Give bare numbers, in U/mg.

Study these solved cases before continuing.
Nc1ncnc2c1nc(SCc1ccccc1)n2[C@@H]1O[C@@H]2CO[P@](O)(=S)O[C@H]2[C@H]1O :: 2.49E+01
COC1C2OP(=O)(O)OCC2OC1n1c(Sc2ccc(Cl)cc2)nc2c(N)ncnc21 [D-007, 8-pCPT-2′-O-Me-cAMP, reference compound] :: 1.06E+01
Nc1ncnc2c1ncn2[C@@H]1O[C@@H]2COP(=O)(O)O[C@H]2[C@H]1O [cAMP, reference compound] :: 2.50E+01

Given the compound Cc1ccc(CSc2nc3c(N)ncnc3n2[C@@H]2O[C@@H]3CO[P@](O)(=S)O[C@H]3[C@H]2O)cc1 , what is its reported A (PKA activity)?
3.182

---

- testedOn: Epac1 (Homo sapiens)
- Construct: made in house
- procedureText: Epac activation assay, Epac1
- Format: biochemical
- statedConditions: 40 μM compound
measuredMetric: kobs (s⁻¹)
Give bare numbers, in s⁻¹.

Here is how some compounds turned out for kobs.
Nc1ncnc2c1nc(SCc1ccccc1)n2[C@@H]1O[C@@H]2CO[P@](O)(=S)O[C@H]2[C@H]1O [S-220, Sp-8-BnT-cAMPS] :: 0.00033
Nc1ncnc2c1ncn2[C@@H]1O[C@@H]2COP(=O)(O)O[C@H]2[C@H]1O [cAMP, reference compound] :: 0.000692

For every record below, what is its kobs?
1. Cc1ccc(CSc2nc3c(N)ncnc3n2[C@@H]2O[C@@H]3CO[P@](O)(=S)O[C@H]3[C@H]2O)cc1 [S-230, Sp-8-pMeBnT-cAMPS]
2. COC1C2OP(=O)(O)OCC2OC1n1c(Sc2ccc(Cl)cc2)nc2c(N)ncnc21 [D-007, 8-pCPT-2′-O-Me-cAMP, reference compound]

1: 0.000131; 2: 0.00378

---

- testedOn: Epac1 (Homo sapiens, UniProt O95398)
- Construct: made in house
- procedureText: Epac activation assay, Epac1
- Assay type: biochemical
- statedConditions: Epac1; maximal activity relative to cAMP
Tag: Criterion met if measured Rel. kmax is not below 0.3, Criterion not met if it is.

Nc1ncnc2c1nc(SCc1ccccc1Cl)n2[C@@H]1O[C@@H]2CO[P@](O)(=S)O[C@H]2[C@H]1O :: Criterion not met

Evaluate Nc1ncnc2c1nc(Br)n2[C@@H]1O[C@@H]2CO[P@](O)(=S)O[C@H]2[C@H]1F : Rel. kmax at minimum 0.3?
Criterion not met

What would you report for Nc1ncnc2c1nc(Br)n2[C@@H]1O[C@@H]2COP(=O)(O)O[C@H]2[C@H]1F ?
Criterion met

Next compound: Nc1ncnc2c1nc(Br)n2[C@@H]1O[C@@H]2CO[P@](O)(=S)O[C@H]2[C@H]1Cl
Criterion not met

---

- testedOn: Epac1 (Homo sapiens)
- Construct: made in house
- procedureText: Epac activation assay, Epac1
- Assay type: biochemical
- statedConditions: Epac1
measuredMetric: AC50 (µM)
Numbers only, in µM.

These solved cases illustrate the format of a correct answer.
COc1ccc(Sc2nc3c(N)ncnc3n2[C@@H]2O[C@@H]3COP(=O)(O)OC3[C@@H]2OC)cc1 (stereo partly shown) :: 2.3
O[C@@H]1[C@@H]2OP(O)(=S)OC[C@H]2O[C@H]1n1cnc2cc(Cl)c(Cl)cc21 (stereo partly shown) :: 14

Value sought for every listed compound: AC50.
1. CNc1nc2c(N)ncnc2n1[C@@H]1O[C@@H]2CO[P@](O)(=S)O[C@H]2[C@H]1O
2. Nc1ncnc2c1nc(Br)n2[C@@H]1O[C@@H]2COP(=O)(O)O[C@H]2[C@H]1Cl

1: 30; 2: 260

---

- testedOn: Epac2^fl (Mus musculus)
- Sequence (Q9EQZ6 1-993 isoform Q9EQZ6-3): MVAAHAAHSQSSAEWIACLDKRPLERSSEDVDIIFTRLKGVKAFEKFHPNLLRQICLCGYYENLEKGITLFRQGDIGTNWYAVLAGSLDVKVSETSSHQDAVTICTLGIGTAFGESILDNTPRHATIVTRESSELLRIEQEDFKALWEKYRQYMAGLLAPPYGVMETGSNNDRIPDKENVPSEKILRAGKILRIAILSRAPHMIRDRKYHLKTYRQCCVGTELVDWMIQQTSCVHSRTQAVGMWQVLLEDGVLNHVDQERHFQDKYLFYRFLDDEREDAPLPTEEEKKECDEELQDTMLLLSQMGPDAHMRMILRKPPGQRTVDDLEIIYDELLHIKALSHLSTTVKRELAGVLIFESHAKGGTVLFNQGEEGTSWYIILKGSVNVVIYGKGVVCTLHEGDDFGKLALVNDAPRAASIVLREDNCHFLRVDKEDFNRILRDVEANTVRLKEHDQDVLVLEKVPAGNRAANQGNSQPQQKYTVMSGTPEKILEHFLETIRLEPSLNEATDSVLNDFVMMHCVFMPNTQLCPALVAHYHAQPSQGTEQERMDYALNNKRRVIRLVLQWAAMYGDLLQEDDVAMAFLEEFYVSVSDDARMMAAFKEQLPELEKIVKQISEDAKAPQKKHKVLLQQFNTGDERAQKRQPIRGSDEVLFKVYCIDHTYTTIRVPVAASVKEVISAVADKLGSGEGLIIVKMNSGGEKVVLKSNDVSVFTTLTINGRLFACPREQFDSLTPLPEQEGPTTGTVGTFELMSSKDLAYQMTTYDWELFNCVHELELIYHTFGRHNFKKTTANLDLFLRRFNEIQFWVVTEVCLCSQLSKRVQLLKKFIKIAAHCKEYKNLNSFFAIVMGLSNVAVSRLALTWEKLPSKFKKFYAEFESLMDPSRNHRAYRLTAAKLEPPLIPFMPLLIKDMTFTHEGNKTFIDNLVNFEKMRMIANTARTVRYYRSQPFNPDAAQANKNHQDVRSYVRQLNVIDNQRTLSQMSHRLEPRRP
- procedureText: Epac activation assay, full length Epac2
- Format: biochemical
- Parameters: made in house
- statedConditions: Epac2^fl; maximal activity relative to cAMP
Classification field: MET = Rel. kmax at or over 2; NOT MET = Rel. kmax under 2.

Reference set, count: 5
CNc1nc2c(N)ncnc2n1[C@@H]1O[C@@H]2CO[P@](O)(=S)O[C@H]2[C@H]1O :: MET
CSc1nc2c(N)ncnc2n1[C@@H]1O[C@@H]2COP(=O)(O)O[C@H]2[C@H]1SC :: MET
Nc1ncnc2c1nc(SCc1ccccc1)n2[C@@H]1O[C@@H]2CO[P@](O)(=S)O[C@H]2[C@H]1O :: MET
Nc1ncnc2c1nc(SCc1ccccc1)n2[C@@H]1O[C@@H]2CO[P@](O)(=S)O[C@H]2[C@H]1F :: NOT MET
COC1C2OP(=O)(O)OCC2OC1n1c(Sc2ccc(Cl)cc2)nc2c(N)ncnc21 [D-007, 8-pCPT-2′-O-Me-cAMP, reference compound] :: NOT MET

Moving on to the next compound.
Could you verify whether the entry Nc1ncnc2c1nc(Br)n2[C@@H]1O[C@@H]2COP(O)(=S)O[C@@H]2C1O (stereo partly drawn) shows Rel. kmax of no less than 2?
MET

---

Task for the reader: assign each of the following molecules its reported kobs.
- testedOn: Epac1 (Homo sapiens, UniProt O95398)
- Construct: made in house
- Sequence (O95398 150-881 isoform O95398-3): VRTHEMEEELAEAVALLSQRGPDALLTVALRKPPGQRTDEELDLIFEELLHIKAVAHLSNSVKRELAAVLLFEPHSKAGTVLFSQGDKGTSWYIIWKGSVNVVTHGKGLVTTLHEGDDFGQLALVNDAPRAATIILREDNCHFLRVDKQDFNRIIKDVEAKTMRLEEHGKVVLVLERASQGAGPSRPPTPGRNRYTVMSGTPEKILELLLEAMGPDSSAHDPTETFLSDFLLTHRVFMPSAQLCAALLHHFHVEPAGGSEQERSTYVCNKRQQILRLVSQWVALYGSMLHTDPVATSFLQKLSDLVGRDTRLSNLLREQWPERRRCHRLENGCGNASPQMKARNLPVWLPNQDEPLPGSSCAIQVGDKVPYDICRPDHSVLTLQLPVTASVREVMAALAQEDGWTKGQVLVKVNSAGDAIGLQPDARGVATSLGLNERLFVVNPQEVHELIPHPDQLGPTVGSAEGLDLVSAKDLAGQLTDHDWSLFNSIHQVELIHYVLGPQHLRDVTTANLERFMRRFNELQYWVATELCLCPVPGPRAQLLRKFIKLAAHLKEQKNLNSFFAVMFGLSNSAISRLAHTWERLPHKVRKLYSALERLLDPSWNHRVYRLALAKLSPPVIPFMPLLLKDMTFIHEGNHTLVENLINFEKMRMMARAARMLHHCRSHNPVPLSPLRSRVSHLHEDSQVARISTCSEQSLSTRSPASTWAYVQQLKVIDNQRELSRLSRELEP
- procedureText: Epac activation assay, Epac1
- Assay type: biochemical
- statedConditions: 80 μM compound
One number for each entry, in s⁻¹.

Solved entries (count: 3):
Nc1ncnc2c1nc(SCc1ccccc1)n2[C@@H]1O[C@@H]2CO[P@](O)(=S)O[C@H]2[C@H]1O :: 0.000331
Nc1ncnc2c1ncn2[C@@H]1O[C@@H]2COP(=O)(O)O[C@H]2[C@H]1O [cAMP, reference compound] :: 0.000859
Cc1ccc(CSc2nc3c(N)ncnc3n2[C@@H]2O[C@@H]3CO[P@](O)(=S)O[C@H]3[C@H]2O)cc1 :: 0.00017

Entry COC1C2OP(=O)(O)OCC2OC1n1c(Sc2ccc(Cl)cc2)nc2c(N)ncnc21 [D-007, 8-pCPT-2′-O-Me-cAMP, reference compound] : reported kobs = ?
0.00359

---

- testedOn: PKA-IIα (Homo sapiens, UniProt P13861)
- Construct: made in house
- Sequence (P13861 whole entry): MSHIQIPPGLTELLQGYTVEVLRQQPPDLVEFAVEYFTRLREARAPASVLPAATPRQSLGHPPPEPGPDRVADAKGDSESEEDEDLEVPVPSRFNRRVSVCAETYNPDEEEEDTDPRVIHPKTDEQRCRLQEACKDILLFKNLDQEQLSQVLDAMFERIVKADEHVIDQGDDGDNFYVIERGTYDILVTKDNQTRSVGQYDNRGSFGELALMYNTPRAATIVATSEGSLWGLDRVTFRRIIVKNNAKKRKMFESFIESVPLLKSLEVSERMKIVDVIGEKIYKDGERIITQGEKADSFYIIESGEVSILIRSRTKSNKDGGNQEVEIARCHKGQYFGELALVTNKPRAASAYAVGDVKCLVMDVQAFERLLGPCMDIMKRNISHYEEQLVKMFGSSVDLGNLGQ
- procedureText: PKA activity assay, PKA-IIα
- Assay type: biochemical
- statedConditions: PKAIIα; concentration 1.00E-04 μM
measuredMetric: A (PKA activity) (U/mg)
One number for each entry, in U/mg.

Cc1ccc(CSc2nc3c(N)ncnc3n2[C@@H]2O[C@@H]3CO[P@](O)(=S)O[C@H]3[C@H]2O)cc1 :: 5.243
Nc1ncnc2c1nc(SCc1ccccc1)n2[C@@H]1O[C@@H]2CO[P@](O)(=S)O[C@H]2[C@H]1O :: 4.739
COC1C2OP(=O)(O)OCC2OC1n1c(Sc2ccc(Cl)cc2)nc2c(N)ncnc21 [D-007, 8-pCPT-2′-O-Me-cAMP, reference compound] :: 4.937

We next turn to a different compound, shown below.
Data request, read-out A (PKA activity), for Nc1ncnc2c1ncn2[C@@H]1O[C@@H]2COP(=O)(O)O[C@H]2[C@H]1O [cAMP, reference compound]
5.697

---

Record form. Attribute: kobs. Fill in for each entry.
- testedOn: Epac1 (Homo sapiens, UniProt O95398)
- Construct: made in house
- procedureText: Epac activation assay, Epac1
- Type: biochemical
- statedConditions: 2 μM compound
Express the reported value numerically, then name its unit.

Cc1ccc(CSc2nc3c(N)ncnc3n2[C@@H]2O[C@@H]3CO[P@](O)(=S)O[C@H]3[C@H]2O)cc1 :: 2.1e-05 s⁻¹
Nc1ncnc2c1nc(SCc1ccccc1)n2[C@@H]1O[C@@H]2CO[P@](O)(=S)O[C@H]2[C@H]1O :: 5.8e-05 s⁻¹
Nc1ncnc2c1ncn2[C@@H]1O[C@@H]2COP(=O)(O)O[C@H]2[C@H]1O [cAMP, reference compound] :: 6.1e-05 s⁻¹

Consider the compound COC1C2OP(=O)(O)OCC2OC1n1c(Sc2ccc(Cl)cc2)nc2c(N)ncnc21 [D-007, 8-pCPT-2′-O-Me-cAMP, reference compound] and give its measured kobs.
0.00219 s⁻¹
